# credit: patent US20060135569A1

system: TA97; assay: Ames test, strain TA97; format: cell-based; details: 500 μg/dish
Measured TA97 −S9, listed per entry.
endpoint: TA97 −S9

>>> print(df.to_string())
                              chem_smiles  target_of_assay  measured_result
0          O=c1c2cc(F)ccc2[se]n1-c1ccccn1             TA97            57.33
1         O=c1c2ccc(Cl)cc2[se]n1-c1ccncc1             TA97            33.33
2  C/C(=N\O)c1ccc(-n2[se]c3ccccc3c2=O)cc1             TA97            59.67
3          O=c1c2cc(F)ccc2[se]n1-c1cccnc1             TA97            65.33
4         O=c1c2cc(Cl)ccc2[se]n1-c1ccccn1             TA97            55.50
